assay: self-splicing fitness, log relative to wild type (ln ratio); higher = more splicing; Tetrahymena group I intron in knt gene, E. coli kanamycin selection, DiMSum; sequences stand for … in CUCUCU…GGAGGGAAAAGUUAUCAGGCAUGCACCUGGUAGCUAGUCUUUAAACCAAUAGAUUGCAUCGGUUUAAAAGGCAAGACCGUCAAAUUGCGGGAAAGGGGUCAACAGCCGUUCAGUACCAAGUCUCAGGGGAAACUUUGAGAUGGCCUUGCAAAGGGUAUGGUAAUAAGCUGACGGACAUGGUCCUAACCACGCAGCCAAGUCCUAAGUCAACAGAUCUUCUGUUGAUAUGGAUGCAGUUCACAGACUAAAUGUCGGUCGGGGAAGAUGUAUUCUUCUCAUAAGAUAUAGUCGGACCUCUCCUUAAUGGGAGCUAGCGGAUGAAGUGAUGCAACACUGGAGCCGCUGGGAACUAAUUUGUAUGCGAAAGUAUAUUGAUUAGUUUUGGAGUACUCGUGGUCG; settings: 37 °C;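 further: selection with 25 µg/mL kanamycin versus none on LB agar overnight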
Classification field: Condition met = self-splicing fitness (ln) at or over -0.9; Condition not met = self-splicing fitness (ln) under -0.9.

Request: Quick check: does UUUGAGCAAUAUUACGUGCA have self-splicing fitness (ln) greater than or equal to -0.9?
Result: Condition not met

Request: Then what about the sequence AAUCAGCAAUAUUACGCCAG ?
Result: Condition not met

Request: Then what about the sequence CUAAAGCAAUAUUACGAGCU ?
Result: Condition not met

Request: Then what about the sequence CUUCAGCAAUAUUACGAAGC ?
Result: Condition not met

Request: Then what about the sequence GGUAAGCAAUAUUACGGAGC ?
Result: Condition not met

Request: Then what about the sequence AUAAAGCAAUAUUACGACAU ?
Result: Condition met

Request: Then what about the sequence AAGAAGCAAUAUUACGCUCG ?
Result: Condition met

Request: Then what about the sequence UAAUAGCAAUAUUACGUAGA ?
Result: Condition not met

Request: Then what about the sequence AGCCAGCAAUAUUACGCCCC ?
Result: Condition met

Request: Then what about the sequence GCCCAGCAAUAUUACGCUGU ?
Result: Condition met

Request: Then what about the sequence UUAAAGCAAUAUUACGGCUC ?
Result: Condition met

Request: Then what about the sequence ACUGAGCAAUAUUACGUUAC ?
Result: Condition not met

Request: Then what about the sequence CGACAGCAAUAUUACGCGAU ?
Result: Condition not met

Request: Then what about the sequence CAAGAGCAAUAUUACGGUAG ?
Result: Condition not met

Request: Then what about the sequence AAAAAGCAAUAUUACGGUUA ?
Result: Condition met

Request: Then what about the sequence CCCAAGCAAUAUUACGGCAA ?
Result: Condition not met

Request: Then what about the sequence UUCCAGCAAUAUUACGCAGC ?
Result: Condition not met

Request: Then what about the sequence CACAAGCAAUAUUACGGGUU ?
Result: Condition not met

Request: Then what about the sequence CUUCAGCAAUAUUACGUGGG ?
Result: Condition not met

Request: Then what about the sequence UAAAAGCAAUAUUACGCAUG ?
Result: Condition met

Request: Then what about the sequence AGCUAGCAAUAUUACGGAUA ?
Result: Condition not met

Request: Then what about the sequence AUAGAGCAAUAUUACGUCCA ?
Result: Condition met

Request: Then what about the sequence UUCUAGCAAUAUUACGUGAC ?
Result: Condition not met

Request: Then what about the sequence GGUUAGCAAUAUUACGUCAA ?
Result: Condition met

Request: Then what about the sequence UCCCAGCAAUAUUACGGCAU ?
Result: Condition not met

Request: Then what about the sequence UGUGAGCAAUAUUACGAAAG ?
Result: Condition not met

Request: Then what about the sequence CUACAGCAAUAUUACGCGAG ?
Result: Condition not met

Request: Then what about the sequence AAUCAGCAAUAUUACGAAAA ?
Result: Condition met

Request: Then what about the sequence AAGUAGCAAUAUUACGUUUG ?
Result: Condition not met

Request: Then what about the sequence UCCUAGCAAUAUUACGAUAA ?
Result: Condition not met

Request: Then what about the sequence UGUUAGCAAUAUUACGUAUG ?
Result: Condition met

Request: Then what about the sequence GCUUAGCAAUAUUACGACUG ?
Result: Condition not met

Request: Then what about the sequence GUAUAGCAAUAUUACGUUCA ?
Result: Condition met

Request: Then what about the sequence UUGUAGCAAUAUUACGCUUA ?
Result: Condition not met

Request: Then what about the sequence CCGCAGCAAUAUUACGUGUA ?
Result: Condition not met

Request: Then what about the sequence CCCAAGCAAUAUUACGCAAG ?
Result: Condition not met

Request: Then what about the sequence AUAUAGCAAUAUUACGACUU ?
Result: Condition met

Request: Then what about the sequence UACUAGCAAUAUUACGGCUG ?
Result: Condition met

Request: Then what about the sequence UCUGAGCAAUAUUACGCGUG ?
Result: Condition met

Request: Then what about the sequence AAGCAGCAAUAUUACGAUAA ?
Result: Condition not met

Request: Then what about the sequence GUAGAGCAAUAUUACGAUGG ?
Result: Condition not met

Request: Then what about the sequence UAUCAGCAAUAUUACGGCGG ?
Result: Condition met

Request: Then what about the sequence GGGAAGCAAUAUUACGCACG ?
Result: Condition met

Request: Then what about the sequence AUGAAGCAAUAUUACGUGCC ?
Result: Condition met

Request: Then what about the sequence CACUAGCAAUAUUACGCAUA ?
Result: Condition not met

Request: Then what about the sequence ACUCAGCAAUAUUACGACUC ?
Result: Condition met

Request: Then what about the sequence UGAUAGCAAUAUUACGACUA ?
Result: Condition met

Request: Then what about the sequence UCGCAGCAAUAUUACGCCGC ?
Result: Condition not met

Request: Then what about the sequence CCUGAGCAAUAUUACGUACA ?
Result: Condition met

Request: Then what about the sequence ACACAGCAAUAUUACGGCAC ?
Result: Condition met

Request: Then what about the sequence GCAAAGCAAUAUUACGUUAG ?
Result: Condition not met

Request: Then what about the sequence GCUCAGCAAUAUUACGUGUU ?
Result: Condition met

Request: Then what about the sequence GACCAGCAAUAUUACGCACC ?
Result: Condition not met

Request: Then what about the sequence CGCUAGCAAUAUUACGCGCA ?
Result: Condition not met

Request: Then what about the sequence AACCAGCAAUAUUACGUCCU ?
Result: Condition met

Request: Then what about the sequence AAGUAGCAAUAUUACGCUUA ?
Result: Condition met

Request: Then what about the sequence CGCGAGCAAUAUUACGUUUU ?
Result: Condition not met

Request: Then what about the sequence AAUGAGCAAUAUUACGCGCG ?
Result: Condition not met

Request: Then what about the sequence AAGGAGCAAUAUUACGUAUC ?
Result: Condition not met

Request: Then what about the sequence AAAUAGCAAUAUUACGGUGC ?
Result: Condition not met

Request: Then what about the sequence CUUUAGCAAUAUUACGUAGC ?
Result: Condition not met

Request: Then what about the sequence ACUGAGCAAUAUUACGGCUG ?
Result: Condition met

Request: Then what about the sequence CUCGAGCAAUAUUACGGGGC ?
Result: Condition not met

Request: Then what about the sequence GUAUAGCAAUAUUACGAACU ?
Result: Condition met

Request: Then what about the sequence GGACAGCAAUAUUACGUGGG ?
Result: Condition not met

Request: Then what about the sequence AUACAGCAAUAUUACGACUA ?
Result: Condition met

Request: Then what about the sequence UCAUAGCAAUAUUACGUUCA ?
Result: Condition not met

* * *

Field: self-splicing fitness (ln). Provide a value for each of the sequences that follow.
assay: self-splicing fitness, log relative to wild type (ln ratio); higher = more splicing; Tetrahymena group I intron in knt gene, E. coli kanamycin selection, DiMSum; sequences stand for … in CUCUCU…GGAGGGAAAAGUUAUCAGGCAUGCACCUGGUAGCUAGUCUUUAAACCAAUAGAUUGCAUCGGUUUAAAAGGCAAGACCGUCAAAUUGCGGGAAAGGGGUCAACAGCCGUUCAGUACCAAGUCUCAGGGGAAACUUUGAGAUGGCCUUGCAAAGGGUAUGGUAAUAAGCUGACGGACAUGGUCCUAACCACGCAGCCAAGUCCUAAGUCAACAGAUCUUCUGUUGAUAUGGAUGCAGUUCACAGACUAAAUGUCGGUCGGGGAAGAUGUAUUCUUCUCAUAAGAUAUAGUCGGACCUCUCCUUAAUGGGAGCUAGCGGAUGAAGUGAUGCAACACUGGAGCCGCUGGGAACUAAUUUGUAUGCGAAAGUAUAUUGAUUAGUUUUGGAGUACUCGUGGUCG; conditions: 30 °C
// return a plain number; no unit text

Request: Recorded self-splicing fitness (ln) for CUUCAGCAAUAUUACGGUGG , please?
Result: -2.39

Request: Then what about the sequence AGCCAGCAAUAUUACGCCCC ?
Result: -1.54

Request: Then what about the sequence UAAAAGCAAUAUUACGUUUC ?
Result: -3.32

Request: Then what about the sequence GGCUAGCAAUAUUACGCAGA ?
Result: -1.3

Request: Then what about the sequence GGGUAGCAAUAUUACGUAGU ?
Result: -2.23

Request: Then what about the sequence UUUCAGCAAUAUUACGACUU ?
Result: -0.723

Request: Then what about the sequence AGGUAGCAAUAUUACGUUAU ?
Result: -3.6

Request: Then what about the sequence AGUUAGCAAUAUUACGCGGU ?
Result: -2.58

Request: Then what about the sequence AAUUAGCAAUAUUACGAUCG ?
Result: -0.473

Request: Then what about the sequence GGGCAGCAAUAUUACGAAUC ?
Result: -0.438

Request: Then what about the sequence AAUUAGCAAUAUUACGUGGA ?
Result: -3.12

Request: Then what about the sequence AGGUAGCAAUAUUACGUUAG ?
Result: -3.84

Request: Then what about the sequence UACGAGCAAUAUUACGCCUG ?
Result: -1.65

Request: Then what about the sequence UGCUAGCAAUAUUACGGGAU ?
Result: -3.68

Request: Then what about the sequence GUGCAGCAAUAUUACGUACG ?
Result: -2.19

Request: Then what about the sequence AUCAAGCAAUAUUACGUUAA ?
Result: -3.14

Request: Then what about the sequence AGUGAGCAAUAUUACGUCUG ?
Result: -2.84

Request: Then what about the sequence UUAAAGCAAUAUUACGUUUC ?
Result: -3.92

Request: Then what about the sequence GUAGAGCAAUAUUACGAUCG ?
Result: -2.6

Request: Then what about the sequence AAUGAGCAAUAUUACGACAU ?
Result: -1.33

Request: Then what about the sequence GUGAAGCAAUAUUACGGCUU ?
Result: -4.92

Request: Then what about the sequence CUGGAGCAAUAUUACGGGUC ?
Result: -1.97

Request: Then what about the sequence GCAAAGCAAUAUUACGCCUC ?
Result: -2.69

Request: Then what about the sequence AUGAAGCAAUAUUACGCCAG ?
Result: -0.726

Request: Then what about the sequence GUAAAGCAAUAUUACGAAGG ?
Result: -3.13

Request: Then what about the sequence GACAAGCAAUAUUACGACCC ?
Result: 0.926

Request: Then what about the sequence AUAUAGCAAUAUUACGUCGU ?
Result: -1.12

Request: Then what about the sequence AUAGAGCAAUAUUACGAUUG ?
Result: -3.46

Request: Then what about the sequence UAGAAGCAAUAUUACGUCGG ?
Result: -0.813

Request: Then what about the sequence UUUGAGCAAUAUUACGCAUU ?
Result: -2.65

Request: Then what about the sequence CGCUAGCAAUAUUACGAGUG ?
Result: -2.91

Request: Then what about the sequence GCGUAGCAAUAUUACGGAGU ?
Result: -2.88

Request: Then what about the sequence CAUGAGCAAUAUUACGCGUG ?
Result: -4.92

Request: Then what about the sequence UGGAAGCAAUAUUACGUCCU ?
Result: -0.91
